Experiment: Bioavailability in rats at 1 mg/kg, po
Assay type: ADME, organism-based
Conditions: rat, in vivo
Quantity Name: bioavailability

Sure, the documented bioavailability for `N=C(N)NCCC[C@H](NC(=O)c1ccc(C(c2ccccc2)c2ccccc2)o1)C(=O)O` is < 1%

###

Assay: Bioavailability in rats at 1 mg/kg, […]
Assay type: ADME, organism-based
Details: rat, in vivo
Quantity Name: bioavailability

Record summary for `N=C(N)NCCC[C@H](NC(=O)c1ccc(C(c2ccccc2)c2ccccc2)o1)C(=O)O` : reported bioavailability = < 1%

###

Biological target: CYP2D6 (Homo sapiens, UniProt P10635)
Sequence (P10635 whole entry): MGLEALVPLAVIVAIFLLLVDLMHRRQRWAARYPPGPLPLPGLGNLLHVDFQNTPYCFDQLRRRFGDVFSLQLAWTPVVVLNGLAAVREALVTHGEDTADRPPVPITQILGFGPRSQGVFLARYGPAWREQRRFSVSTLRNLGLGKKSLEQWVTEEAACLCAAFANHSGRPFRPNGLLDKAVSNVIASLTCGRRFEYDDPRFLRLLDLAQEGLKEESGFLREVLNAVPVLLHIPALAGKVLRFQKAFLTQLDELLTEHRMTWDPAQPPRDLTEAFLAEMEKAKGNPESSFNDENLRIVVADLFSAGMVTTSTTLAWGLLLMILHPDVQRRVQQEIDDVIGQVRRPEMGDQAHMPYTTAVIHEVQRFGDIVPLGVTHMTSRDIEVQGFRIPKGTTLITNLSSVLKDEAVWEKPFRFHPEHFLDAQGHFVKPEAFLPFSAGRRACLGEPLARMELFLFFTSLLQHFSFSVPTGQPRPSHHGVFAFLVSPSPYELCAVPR
Assay: Inhibition of CYP2D6 at 50 uM
Format: ADME
Quantity Name: inhibition at 50 µM (%)
Please respond with the number in % and leave the unit unwritten.

Please fill in: inhibition at 50 µM reported for `N=C(N)NCCC[C@H](NC(=O)c1ccc(C(c2ccccc2)c2ccccc2)o1)C(=O)O` = 12

###

Assay: Metabolic clearance in rat hepatocytes assessed per 10^6 cells
Assay type: ADME, cell-based, Liver, Hepatocyte
Quantity Name: hepatocyte CLint (µL/min/1e6 cells)
Use µL/min/1e6 cells as the unit, but write only the number.

For record `N=C(N)NCCC[C@H](NC(=O)c1ccc(C(c2ccccc2)c2ccccc2)o1)C(=O)O` the listed hepatocyte CLint is 5

###

Target: UniProtKB Q16581
Assay: Agonist activity at C3a receptor expressed on HMC1 cells
Assay type: functional, cell-based
Entries and their EC50 values follow.
Form entry: value (nM) — number only.

Consider the worked cases shown below.
Smiles Entry | Unit Text | Number
N=C(N)NCCC[C@@H](NC(=O)c1ccc(-c2cccc(Cl)c2)o1)C(=O)O | nM | 501
N=C(N)NCCC[C@@H](NC(=O)c1ccc(C(c2cccc(Cl)c2)c2cccc(Cl)c2)o1)C(=O)O | nM | 20

Recorded EC50 (compound `NC(N)=NCCC[C@@H](NC(=O)c1ccc(C(c2ccc(Cl)cc2)c2ccc(Cl)cc2)o1)C(=O)O` ): 126

###

Assay: Peak plasma concentration in ovalbumin-induced BALB/c mouse model of airway inflammation at 3 mg/ml aerosol after 30 mins
Type: ADME, organism-based
Settings: inhaled or intranasal
Quantity Name: Cmax (ng/mL)
Report the figure in ng/mL without appending any unit label.

What the record says about `N=C(N)NCCC[C@H](NC(=O)c1ccc(C(c2ccccc2)c2ccccc2)o1)C(=O)O` : Cmax is 27

###

Assay: Metabolic clearance in rat liver microsomes
Type: ADME, Microsome
Quantity Name: microsomal CLint (µL/min/mg)
Enter your answer as a number in µL/min/mg; do not include the unit.

Entry `N=C(N)NCCC[C@H](NC(=O)c1ccc(C(c2ccccc2)c2ccccc2)o1)C(=O)O` ; microsomal CLint = 4

###

Experiment: Peak plasma concentration in ovalbumin-induced BALB/c mouse model of airway inflammation at 30 mg/kg, ip after 30 mins
Type: ADME, organism-based
Set-up: dose 30 mg/kg, route intraperitoneal
Quantity Name: Cmax
Write the quantity with the unit trailing the number.

Value of Cmax reported for the compound `N=C(N)NCCC[C@H](NC(=O)c1ccc(C(c2ccccc2)c2ccccc2)o1)C(=O)O` is 33800 ng/mL

###

Target: C3a anaphylatoxin chemotactic receptor (Homo sapiens, UniProt Q16581)
Sequence (Q16581 whole entry): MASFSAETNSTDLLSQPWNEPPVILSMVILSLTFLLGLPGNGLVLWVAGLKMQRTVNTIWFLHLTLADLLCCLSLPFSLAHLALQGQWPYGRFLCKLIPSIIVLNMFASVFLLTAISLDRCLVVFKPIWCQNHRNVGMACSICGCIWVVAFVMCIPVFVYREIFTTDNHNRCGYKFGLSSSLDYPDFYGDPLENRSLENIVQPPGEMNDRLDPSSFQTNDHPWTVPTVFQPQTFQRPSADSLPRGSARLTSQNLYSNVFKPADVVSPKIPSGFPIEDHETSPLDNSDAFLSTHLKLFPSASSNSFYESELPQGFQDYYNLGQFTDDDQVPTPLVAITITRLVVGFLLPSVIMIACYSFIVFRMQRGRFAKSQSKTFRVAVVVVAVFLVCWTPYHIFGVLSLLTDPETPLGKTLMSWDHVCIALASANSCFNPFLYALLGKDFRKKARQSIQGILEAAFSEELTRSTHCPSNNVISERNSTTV
Assay: Inhibition of human C3a receptor expressed on HMC1 cells by SPA assay
Quantity Name: pIC50
Friendly reminder that pIC50 comes from taking -log10 of the concentration in mol/L.

Smiles Entry | pIC50
NC(N)=NCCC[C@@H](NC(=O)N1CCN(C(c2ccccc2)c2ccccc2)CC1)C(=O)O | 4.30
NC(N)=NCCC[C@@H](NC(=O)c1ccc(-c2ccc(F)c(Cl)c2)o1)C(=O)O | 6.70
CCOc1cccc(-c2ccc(C(=O)N[C@H](CCCN=C(N)N)C(=O)O)o2)c1 | 6.70
N=C(N)NCCC[C@@H](NC(=O)c1ccc(C(c2cccc(F)c2)c2cccc(F)c2)o1)C(=O)O | 7.50
N=C(N)NCCC[C@@H](NC(=O)c1ccc(-c2cccc(Cl)c2)cc1)C(=O)O | 4.00
N=C(N)NCCC[C@@H](NC(=O)c1ccc(-c2cc(Cl)ccc2Cl)o1)C(=O)O | 5.80
N=C(N)NCCC[C@@H](NC(=O)c1ccc(-c2cccc(Cl)c2)o1)C(=O)O | 7.10
N=C(N)NCCC[C@@H](NC(=O)c1ccc(C(c2ccccc2)c2ccccc2)cc1)C(=O)O | 6.10
NC(N)=NCCC[C@@H](NC(=O)c1ccc(-c2cccc3c2oc2ccccc23)o1)C(=O)O | 5.40
Cc1ccc(Cl)cc1-c1ccc(C(=O)N[C@H](CCCN=C(N)N)C(=O)O)o1 | 6.10

The reported pIC50 of the molecule `Cc1cccc(-c2ccc(C(=O)N[C@H](CCCNC(=N)N)C(=O)O)o2)c1` was 6.90

Lab book: pIC50 of `N=C(N)NCCC[C@H](NC(=O)COCC(c1ccccc1)c1ccccc1)C(=O)O` noted as 6.30

Entry `N#Cc1cccc(-c2ccc(C(=O)N[C@H](CCCNC(=N)N)C(=O)O)o2)c1` — recorded pIC50 = 6.70
